Quick reference: PBM E-score of 8-mer of the listed items.
System: SpTbr T-box DNA-binding domain (GST fusion);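 also: protein at 200 nM in PBS on universal double-stranded arrays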
Sequence: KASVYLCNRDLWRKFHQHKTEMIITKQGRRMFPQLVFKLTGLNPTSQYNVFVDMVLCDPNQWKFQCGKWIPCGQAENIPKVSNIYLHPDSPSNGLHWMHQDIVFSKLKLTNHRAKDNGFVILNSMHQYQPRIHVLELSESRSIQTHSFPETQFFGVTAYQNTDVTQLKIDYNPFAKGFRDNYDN
Test: PBM E-score of 8-mer (E-score (dimensionless, -0.5 to 0.5)); Tbr is Tbrain of the sea star Patiria miniata (Pm) or the sea urchin Strongylocentrotus purpuratus (Sp); higher = stronger binding preference
Settings: the construct has about 5 more residues each side
Whole data set: some 33,000 sequences, median “E-score (dimensionless, -0.5 to 0.5)” near -0.046, cut for the highest 2% near 0.36. The list comes from a sample in which the highest values are over-represented; it also holds close analogues and randomly drawn sequences.
# answer = number (no unit)

Use the examples below as a reference point.
Give the reported PBM E-score of 8-mer for "CGAAAACC" (system: SpTbr T-box DNA-binding domain (GST fusion)).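 Also: protein at 200 nM in PBS on universal double-stranded arrays.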
-0.297

Try this sequence too: "TAGTGACA"
0.417

Same question, "AAGTGACG" this time
0.4

Please answer likewise for "AGGCGACA"
0.37

Next up: "AAGTGAAA"
0.209

Others:
Report PBM E-score of 8-mer for "TCCGCGAA" tested on SpTbr T-box DNA-binding domain (GST fusion).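 Also: protein at 200 nM in PBS on universal double-stranded arrays.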
0.288

Repeat for the following sequence: "CATGTGTC"
0.346

Now give it for "CGCGCGAA" too.
0.408

Same thing, different sequence: "AGGCGCGC"
0.185

Lookup "CGCTACCA"
0.271

# credit: the supplement of paper PMC4166925
